system: Skin Cancer (MNT-1); type: cell-based, human; details: 48 h
pIC50: −log10 of the molar value. Where a SMILES comes first, the peptide text is derived from it. [ ]: non-standard residue; d: D form.
parameter: pIC50

>>> experimental_result("CC[C@H](C)[C@H](NC(=O)CNC(=O)[C@H](CO)NC(=O)[C@H](CC(C)C)NC(=O)[C@@H](N)Cc1ccccc1)C(=O)N[C@H](C(=O)NCC(=O)N[C@@H](CCSC)C(=O)N[C@@H](CC(C)C)C(=O)N[C@@H](CCCCN)C(=O)N[C@@H](CCCCN)C(=O)N[C@@H](CC(C)C)C(=O)N[C@@H](Cc1ccccc1)C(N)=O)C(C)C [[G10K]-SHa (4)] (H-FLSGIVGMLKKLF-NH2)")
4.66
>>> experimental_result("CC[C@H](C)[C@H](NC(=O)CNC(=O)[C@H](CO)NC(=O)[C@H](CC(C)C)NC(=O)[C@@H](N)Cc1ccccc1)C(=O)N[C@H](C(=O)NCC(=O)N[C@@H](CCSC)C(=O)N[C@@H](CC(C)C)C(=O)N[C@H](Cc1ccc(O)cc1)C(=O)N[C@@H](CCCCN)C(=O)N[C@@H](CC(C)C)C(=O)N[C@@H](Cc1ccccc1)C(N)=O)C(C)C [[G10y]-SHa (6)] (H-FLSGIVGML[dY]KLF-NH2)")
4.36
>>> experimental_result("CC[C@H](C)[C@H](NC(=O)CNC(=O)[C@H](CO)NC(=O)[C@H](CC(C)C)NC(=O)[C@@H](N)Cc1ccccc1)C(=O)N[C@H](C(=O)NCC(=O)N[C@@H](CCSC)C(=O)N[C@@H](CC(C)C)C(=O)N[C@H](Cc1ccccc1)C(=O)N[C@@H](CCCCN)C(=O)N[C@@H](CC(C)C)C(=O)N[C@@H](Cc1ccccc1)C(N)=O)C(C)C [[G10f]-SHa (3)] (H-FLSGIVGML[dF]KLF-NH2)")
5.26

====

assay: Circular dichroism, secondary structure (Bestsel); type: physicochemical; settings: CD in 20 mM SDS
Where a SMILES comes first, the peptide text is derived from it. [ ]: non-standard residue; d: D form. d2Nal = N[C@H](Cc1ccc2ccccc2c1)C(=O)O
parameter: Turn (%)

>>> experimental_result("CC[C@H](C)[C@H](NC(=O)CNC(=O)[C@H](CO)NC(=O)[C@H](CC(C)C)NC(=O)[C@@H](N)Cc1ccccc1)C(=O)N[C@H](C(=O)NCC(=O)N[C@@H](CCSC)C(=O)N[C@@H](CC(C)C)C(=O)N[C@H](Cc1ccccc1)C(=O)N[C@@H](CCCCN)C(=O)N[C@@H](CC(C)C)C(=O)N[C@@H](Cc1ccccc1)C(N)=O)C(C)C [[G10f]-SHa (3)] (H-FLSGIVGML[dF]KLF-NH2)")
0.00
>>> experimental_result("CC[C@H](C)[C@H](NC(=O)CNC(=O)[C@H](CO)NC(=O)[C@H](CC(C)C)NC(=O)[C@@H](N)Cc1ccccc1)C(=O)N[C@H](C(=O)NCC(=O)N[C@@H](CCSC)C(=O)N[C@@H](CC(C)C)C(=O)N[C@H](C)C(=O)N[C@@H](CCCCN)C(=O)N[C@@H](CC(C)C)C(=O)N[C@@H](Cc1ccccc1)C(N)=O)C(C)C [[G10a]-SHa (2)] (H-FLSGIVGML[dA]KLF-NH2)")
0.00
>>> experimental_result("CC[C@H](C)[C@H](NC(=O)CNC(=O)[C@H](CO)NC(=O)[C@H](CC(C)C)NC(=O)[C@@H](N)Cc1ccccc1)C(=O)N[C@H](C(=O)NCC(=O)N[C@@H](CCSC)C(=O)N[C@@H](CC(C)C)C(=O)N[C@H](Cc1ccc2ccccc2c1)C(=O)N[C@@H](CCCCN)C(=O)N[C@@H](CC(C)C)C(=O)N[C@@H](Cc1ccccc1)C(N)=O)C(C)C [[G10n]-SHa (5)] (H-FLSGIVGML[d2Nal]KLF-NH2)")
12.90
>>> experimental_result("CC[C@H](C)[C@H](NC(=O)CNC(=O)[C@H](CO)NC(=O)[C@H](CC(C)C)NC(=O)[C@@H](N)Cc1ccccc1)C(=O)N[C@H](C(=O)NCC(=O)N[C@@H](CCSC)C(=O)N[C@@H](CC(C)C)C(=O)N[C@H](Cc1ccc(O)cc1)C(=O)N[C@@H](CCCCN)C(=O)N[C@@H](CC(C)C)C(=O)N[C@@H](Cc1ccccc1)C(N)=O)C(C)C [[G10y]-SHa (6)] (H-FLSGIVGML[dY]KLF-NH2)")
0.00
>>> experimental_result("CC[C@H](C)[C@H](NC(=O)CNC(=O)[C@H](CO)NC(=O)[C@H](CC(C)C)NC(=O)[C@@H](N)Cc1ccccc1)C(=O)N[C@H](C(=O)NCC(=O)N[C@@H](CCSC)C(=O)N[C@@H](CC(C)C)C(=O)N[C@@H](CCCCN)C(=O)N[C@@H](CCCCN)C(=O)N[C@@H](CC(C)C)C(=O)N[C@@H](Cc1ccccc1)C(N)=O)C(C)C [[G10K]-SHa (4)] (H-FLSGIVGMLKKLF-NH2)")
0.00
>>> experimental_result("CC[C@H](C)[C@H](NC(=O)CNC(=O)[C@H](CO)NC(=O)[C@H](CC(C)C)NC(=O)[C@@H](N)Cc1ccccc1)C(=O)N[C@H](C(=O)NCC(=O)N[C@@H](CCSC)C(=O)N[C@@H](CC(C)C)C(=O)NCC(=O)N[C@@H](CCCCN)C(=O)N[C@@H](CC(C)C)C(=O)N[C@@H](Cc1ccccc1)C(N)=O)C(C)C [Temporin-SHa (1), reference compound] (H-FLSGIVGMLGKLF-NH2)")
0.70

====

test system: Liver Cancer (HepG-2); assay type: cell-based, human; conditions: 48 h
Where a SMILES comes first, the peptide text is derived from it. [ ]: non-standard residue; d: D form. d2Nal = N[C@H](Cc1ccc2ccccc2c1)C(=O)O
parameter: IC50

>>> experimental_result("CC[C@H](C)[C@H](NC(=O)CNC(=O)[C@H](CO)NC(=O)[C@H](CC(C)C)NC(=O)[C@@H](N)Cc1ccccc1)C(=O)N[C@H](C(=O)NCC(=O)N[C@@H](CCSC)C(=O)N[C@@H](CC(C)C)C(=O)N[C@H](Cc1ccc(O)cc1)C(=O)N[C@@H](CCCCN)C(=O)N[C@@H](CC(C)C)C(=O)N[C@@H](Cc1ccccc1)C(N)=O)C(C)C [[G10y]-SHa (6)] (H-FLSGIVGML[dY]KLF-NH2)")
"40.3 µM"
>>> experimental_result("CC[C@H](C)[C@H](NC(=O)CNC(=O)[C@H](CO)NC(=O)[C@H](CC(C)C)NC(=O)[C@@H](N)Cc1ccccc1)C(=O)N[C@H](C(=O)NCC(=O)N[C@@H](CCSC)C(=O)N[C@@H](CC(C)C)C(=O)N[C@H](Cc1ccc2ccccc2c1)C(=O)N[C@@H](CCCCN)C(=O)N[C@@H](CC(C)C)C(=O)N[C@@H](Cc1ccccc1)C(N)=O)C(C)C [[G10n]-SHa (5)] (H-FLSGIVGML[d2Nal]KLF-NH2)")
"> 100 µM"
>>> experimental_result("CC[C@H](C)[C@H](NC(=O)CNC(=O)[C@H](CO)NC(=O)[C@H](CC(C)C)NC(=O)[C@@H](N)Cc1ccccc1)C(=O)N[C@H](C(=O)NCC(=O)N[C@@H](CCSC)C(=O)N[C@@H](CC(C)C)C(=O)N[C@@H](CCCCN)C(=O)N[C@@H](CCCCN)C(=O)N[C@@H](CC(C)C)C(=O)N[C@@H](Cc1ccccc1)C(N)=O)C(C)C [[G10K]-SHa (4)] (H-FLSGIVGMLKKLF-NH2)")
"64.3 µM"
>>> experimental_result("CC[C@H](C)[C@H](NC(=O)CNC(=O)[C@H](CO)NC(=O)[C@H](CC(C)C)NC(=O)[C@@H](N)Cc1ccccc1)C(=O)N[C@H](C(=O)NCC(=O)N[C@@H](CCSC)C(=O)N[C@@H](CC(C)C)C(=O)N[C@H](Cc1ccccc1)C(=O)N[C@@H](CCCCN)C(=O)N[C@@H](CC(C)C)C(=O)N[C@@H](Cc1ccccc1)C(N)=O)C(C)C [[G10f]-SHa (3)] (H-FLSGIVGML[dF]KLF-NH2)")
"19.8 µM"

====

assay: Circular dichroism, secondary structure (Bestsel); type: physicochemical; settings: CD in 20 mM SDS
Where a SMILES comes first, the peptide text is derived from it. [ ]: non-standard residue; d: D form.
parameter: Antiparallel (%)

>>> experimental_result("CC[C@H](C)[C@H](NC(=O)CNC(=O)[C@H](CO)NC(=O)[C@H](CC(C)C)NC(=O)[C@@H](N)Cc1ccccc1)C(=O)N[C@H](C(=O)NCC(=O)N[C@@H](CCSC)C(=O)N[C@@H](CC(C)C)C(=O)N[C@H](Cc1ccc(O)cc1)C(=O)N[C@@H](CCCCN)C(=O)N[C@@H](CC(C)C)C(=O)N[C@@H](Cc1ccccc1)C(N)=O)C(C)C [[G10y]-SHa (6)] (H-FLSGIVGML[dY]KLF-NH2)")
15.10
>>> experimental_result("CC[C@H](C)[C@H](NC(=O)CNC(=O)[C@H](CO)NC(=O)[C@H](CC(C)C)NC(=O)[C@@H](N)Cc1ccccc1)C(=O)N[C@H](C(=O)NCC(=O)N[C@@H](CCSC)C(=O)N[C@@H](CC(C)C)C(=O)NCC(=O)N[C@@H](CCCCN)C(=O)N[C@@H](CC(C)C)C(=O)N[C@@H](Cc1ccccc1)C(N)=O)C(C)C [Temporin-SHa (1), reference compound] (H-FLSGIVGMLGKLF-NH2)")
0.00
